# tested target: CRACM1/STIM1-CHOK1 (Homo sapiens, UniProt Q96D31)
# Construct: Full length human Stim1, CracM1, CracM2 and CracM3 cDNA; Stim1 induced with doxycycline
# Sequence (Q96D31 whole entry): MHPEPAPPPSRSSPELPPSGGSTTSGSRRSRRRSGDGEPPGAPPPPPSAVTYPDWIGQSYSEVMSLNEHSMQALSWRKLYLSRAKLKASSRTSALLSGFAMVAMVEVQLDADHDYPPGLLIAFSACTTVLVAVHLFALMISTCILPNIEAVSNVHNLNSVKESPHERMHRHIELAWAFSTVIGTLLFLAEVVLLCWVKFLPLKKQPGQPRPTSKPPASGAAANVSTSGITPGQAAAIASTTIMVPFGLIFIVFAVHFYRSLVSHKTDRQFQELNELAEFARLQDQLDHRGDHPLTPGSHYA
# test details: Patch clamp inhibition of ICRAC current in CRACM1/STIM1-CHOK1 cells
# Assay type: cell-based
# assay setup: at 500 nM, activity class
metric name: inhibition at 0.5 µM

Record excerpt, results attached:
compound smiles | inhibition at 0.5 µM
CC1=C(c2ccc(NC(=O)c3ccncc3C)cc2)CN(c2nccnc2Cl)CC1 | 50 to 70%
CC1=C(c2ccc(NC(=O)c3ccncc3F)cc2)CN(c2nccnc2Cl)CC1 | 50 to 70%
CC1=C(c2cnc(NC(=O)c3c(F)cccc3F)cn2)CN(S(=O)(=O)N(C)C)CC1 | 70 to 100%
CC1=C(c2ccc(NC(=O)c3cccc(F)c3F)cc2)CN(c2nccs2)CC1 | 70 to 100%

Consider the additional molecule presented here.
The reported inhibition at 0.5 µM of the molecule CC1=C(c2cnc(NC(=O)c3c(F)cccc3F)cn2)CN(c2nc(C)cs2)CC1 was 70 to 100%

----------
# Test system: IL-2
# test details: Inhibition of IL-2 production (Jurkat cells activated with PHA, ELISA)
# Type: cell-based
# assay setup: Homo sapiens, Jurkat, Jurkat/PHA/1% FBS; activity class
metric name: IC50

CC1=C(c2ccc(NC(=O)c3cccc(F)c3F)cc2)CN(c2nccs2)CC1 yielded IC50 of < 50 nM

The recorded IC50 for CC1=C(c2ccc(NC(=O)c3ccncc3F)cc2)CN(c2nccnc2Cl)CC1 is < 50 nM

For record CC1=C(c2cnc(NC(=O)c3c(F)cccc3F)cn2)CN(c2nc(C)cs2)CC1 the listed IC50 is 50 to 100 nM

----------
# Tested on: IL-2
# test details: Inhibition of IL-2 production (Jurkat cells activated with PHA, ELISA)
# Format: cell-based
# assay setup: Homo sapiens, Jurkat, Jurkat/PHA/1% FBS; activity class
metric name: IC50

Guide cases for IC50, answers given:
compound smiles | observed result
CC1=C(c2cnc(NC(=O)c3c(F)cccc3F)cn2)CN(c2nc(-c3cccnc3)cs2)CC1 | 50 to 100 nM
CC1=C(c2cnc(NC(=O)c3c(F)cccc3F)cn2)CN(S(=O)(=O)N(C)C)CC1 | > 100 nM

Shifting focus to the molecule that follows.
Noted for CC1=C(c2ccc(NC(=O)c3ccncc3C)cc2)CN(c2nccnc2Cl)CC1 : its IC50 reads < 50 nM
